- TARGET_OF_ASSAY: PEST (Homo sapiens)
- Sequence (Q05209 1-780): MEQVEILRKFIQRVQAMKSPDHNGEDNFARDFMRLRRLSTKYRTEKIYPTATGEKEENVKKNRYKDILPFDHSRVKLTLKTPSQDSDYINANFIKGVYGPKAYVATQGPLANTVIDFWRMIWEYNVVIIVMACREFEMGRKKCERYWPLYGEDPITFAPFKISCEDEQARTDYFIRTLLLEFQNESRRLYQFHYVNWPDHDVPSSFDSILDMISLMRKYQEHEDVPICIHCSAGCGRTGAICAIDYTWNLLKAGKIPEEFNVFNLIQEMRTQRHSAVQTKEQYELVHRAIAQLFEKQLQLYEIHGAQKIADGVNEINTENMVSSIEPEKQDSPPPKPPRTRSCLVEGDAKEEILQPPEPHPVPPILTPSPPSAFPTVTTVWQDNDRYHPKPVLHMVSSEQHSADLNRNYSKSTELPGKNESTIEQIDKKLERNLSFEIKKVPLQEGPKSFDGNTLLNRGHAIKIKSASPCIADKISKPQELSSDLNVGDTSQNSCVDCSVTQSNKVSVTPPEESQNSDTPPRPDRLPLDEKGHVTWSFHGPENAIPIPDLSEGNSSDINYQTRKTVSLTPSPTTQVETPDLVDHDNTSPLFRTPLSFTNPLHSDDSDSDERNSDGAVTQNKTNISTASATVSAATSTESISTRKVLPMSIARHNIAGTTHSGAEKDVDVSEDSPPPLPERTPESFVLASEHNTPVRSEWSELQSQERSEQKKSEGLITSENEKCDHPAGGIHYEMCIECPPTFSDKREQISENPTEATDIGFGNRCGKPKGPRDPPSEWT
- ASSAY_REMARKS: PTP inhibition assay (pNPP)
- Type: biochemical
- CONDITION_DETAILS: pNPP at Km, pH 7.0, 25° C.; read-out: IC50 PEST
pIC50: −log10 of the molar value.
Reported pIC50 by item:

Use the examples below as a reference point.
| COMPOUND | pIC50 |
| --- | --- |
| O=C(Nc1cccc(OCc2ccccc2)c1)C(=O)Nc1ccccc1NC(=O)C(c1ccccc1)S(=O)(=O)O (stereo not drawn) [Compound L319-21-M52] | < 4.30 |
| O=C(Nc1nc2ccccc2s1)C(c1ccccc1)S(=O)(=O)O (stereo not drawn) [Compound L319N15] | 4.36 |
| O=C(Nc1nnc(-c2ccccc2)s1)C(c1ccccc1)S(=O)(=O)O (stereo not drawn) [Compound L319M73-2] | < 3.70 |
| O=C(Nc1cnc2ccccc2c1)C(c1ccccc1)S(=O)(=O)O (stereo not drawn) [Compound L319M88] | < 3.70 |
| CCCCc1ccc(NC(=O)C(=O)Nc2ccccc2NC(=O)C(c2ccccc2)S(=O)(=O)O)cc1 (stereo not drawn) [Compound L319-21-M06] | < 4.30 |

Write down the reported pIC50 of "O=C(CS(=O)(=O)O)Nc1ccc2nc(C(F)(F)F)[nH]c2c1" , test system: PEST (Homo sapiens).
< 4.00

Hi! What's the reported pIC50 for O=C(CS(=O)(=O)O)Nc1nc2ccc([N+](=O)[O-])cc2s1 [Compound L335N15-07] on PEST (Homo sapiens)?
< 4.00

// map O=C(C(c1ccccc1)S(=O)(=O)O)N1CCC(c2ccc(Cl)c(Cl)c2)CC1 (stereo not drawn) [Compound L319N47] to recorded pIC50 (system: PEST (Homo sapiens))
4.38

What value of pIC50 on PEST (Homo sapiens) does O=C(CS(=O)(=O)O)Nc1nc2ccccc2s1 [Compound L335N15] have?
< 4.00

pIC50 of O=C(C(c1ccccc1)S(=O)(=O)O)N1CCCC2CCCCC21 (stereo not drawn) [Compound L319N53] on PEST (Homo sapiens)?
< 3.70

Short answer please: pIC50, PEST (Homo sapiens), entry O=C(NCc1ccc(NC(=O)C(c2ccccc2)S(=O)(=O)O)cc1)c1ccccc1-c1ccc(C(F)(F)F)cc1 (stereo not drawn) [Compound L319-05-A64]
3.80

Form field - read-out: pIC50; system: PEST (Homo sapiens); submitted item: "O=C(CS(=O)(=O)O)Nc1cnc2ccccc2c1"
< 4.00

Query the reported pIC50 for PEST (Homo sapiens); item: O=C(Nc1ccc2nc(C(F)(F)F)[nH]c2c1)C(c1ccccc1)S(=O)(=O)O (stereo not drawn) [Compound L319M54]
< 3.70

Please tell me: pIC50 of O=C(O)Cc1csc(NC(=O)C(c2ccccc2)S(=O)(=O)O)n1 (stereo not drawn) [Compound L319N72] , system PEST (Homo sapiens)?
< 3.70

GET /values?readout=pIC50&system=PEST (Homo sapiens)&item= O=C(C(c1ccccc1)S(=O)(=O)O)N1CCC(Cc2ccccc2)CC1 (stereo not drawn) [Compound L319N46]
< 3.70

Notebook: pull reported pIC50 for PEST (Homo sapiens), entry O=C(NCCNC(=O)C(c1ccccc1)S(=O)(=O)O)c1cccc(C(=O)c2ccccc2)c1 (stereo not drawn) [Compound L319-02-A60]
< 3.70

Find pIC50 (PEST (Homo sapiens)) for the entry O=C(Nc1ccc(OCc2ccccc2)c(Cl)c1)C(c1ccccc1)S(=O)(=O)O (stereo not drawn) [Compound L319M50]
4.16

Observed pIC50 on PEST (Homo sapiens) for O=C(Nc1ccc(N2CCOCC2)cc1)C(c1ccccc1)S(=O)(=O)O (stereo not drawn) [Compound L319M68] , please.
< 3.70

###

- TARGET_OF_ASSAY: UniProtKB Q9NP77
- Sequence (Q9NP77 1-194): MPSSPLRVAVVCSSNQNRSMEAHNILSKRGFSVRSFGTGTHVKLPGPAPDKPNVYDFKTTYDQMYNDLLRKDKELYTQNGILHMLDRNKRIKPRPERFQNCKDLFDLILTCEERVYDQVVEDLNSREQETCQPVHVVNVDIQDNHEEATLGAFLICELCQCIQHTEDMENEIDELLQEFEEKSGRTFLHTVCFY
- ASSAY_REMARKS: PTP inhibition assay (pNPP)
- Type: biochemical
- CONDITION_DETAILS: pNPP at Km, pH 7.0, 25° C.; read-out: IC50 Ssu72
pIC50: −log10 of the molar value.
ENDPOINT: pIC50

| COMPOUND | pIC50 |
| --- | --- |
| O=C(NCc1ccc(NC(=O)C(c2ccccc2)S(=O)(=O)O)cc1)c1ccccc1-c1ccc(C(F)(F)F)cc1 (stereo not shown) | 3.77 |

Query (compound): "O=C(CS(=O)(=O)O)Nc1ccc2nc(C(F)(F)F)[nH]c2c1" ; field requested: pIC50
< 4.00

Suppose we examine the compound O=C(Nc1cccc(OCc2ccccc2)c1)C(=O)Nc1ccccc1NC(=O)C(c1ccccc1)S(=O)(=O)O (stereo not shown) ; what pIC50 value has been reported?
< 4.30

Returns the measured pIC50 for the input compound. Input: "O=C(CS(=O)(=O)O)Nc1nc2ccc([N+](=O)[O-])cc2s1"
< 4.00

###

- TARGET_OF_ASSAY: PTPσ (Homo sapiens)
- Sequence (Q13332 30-1948): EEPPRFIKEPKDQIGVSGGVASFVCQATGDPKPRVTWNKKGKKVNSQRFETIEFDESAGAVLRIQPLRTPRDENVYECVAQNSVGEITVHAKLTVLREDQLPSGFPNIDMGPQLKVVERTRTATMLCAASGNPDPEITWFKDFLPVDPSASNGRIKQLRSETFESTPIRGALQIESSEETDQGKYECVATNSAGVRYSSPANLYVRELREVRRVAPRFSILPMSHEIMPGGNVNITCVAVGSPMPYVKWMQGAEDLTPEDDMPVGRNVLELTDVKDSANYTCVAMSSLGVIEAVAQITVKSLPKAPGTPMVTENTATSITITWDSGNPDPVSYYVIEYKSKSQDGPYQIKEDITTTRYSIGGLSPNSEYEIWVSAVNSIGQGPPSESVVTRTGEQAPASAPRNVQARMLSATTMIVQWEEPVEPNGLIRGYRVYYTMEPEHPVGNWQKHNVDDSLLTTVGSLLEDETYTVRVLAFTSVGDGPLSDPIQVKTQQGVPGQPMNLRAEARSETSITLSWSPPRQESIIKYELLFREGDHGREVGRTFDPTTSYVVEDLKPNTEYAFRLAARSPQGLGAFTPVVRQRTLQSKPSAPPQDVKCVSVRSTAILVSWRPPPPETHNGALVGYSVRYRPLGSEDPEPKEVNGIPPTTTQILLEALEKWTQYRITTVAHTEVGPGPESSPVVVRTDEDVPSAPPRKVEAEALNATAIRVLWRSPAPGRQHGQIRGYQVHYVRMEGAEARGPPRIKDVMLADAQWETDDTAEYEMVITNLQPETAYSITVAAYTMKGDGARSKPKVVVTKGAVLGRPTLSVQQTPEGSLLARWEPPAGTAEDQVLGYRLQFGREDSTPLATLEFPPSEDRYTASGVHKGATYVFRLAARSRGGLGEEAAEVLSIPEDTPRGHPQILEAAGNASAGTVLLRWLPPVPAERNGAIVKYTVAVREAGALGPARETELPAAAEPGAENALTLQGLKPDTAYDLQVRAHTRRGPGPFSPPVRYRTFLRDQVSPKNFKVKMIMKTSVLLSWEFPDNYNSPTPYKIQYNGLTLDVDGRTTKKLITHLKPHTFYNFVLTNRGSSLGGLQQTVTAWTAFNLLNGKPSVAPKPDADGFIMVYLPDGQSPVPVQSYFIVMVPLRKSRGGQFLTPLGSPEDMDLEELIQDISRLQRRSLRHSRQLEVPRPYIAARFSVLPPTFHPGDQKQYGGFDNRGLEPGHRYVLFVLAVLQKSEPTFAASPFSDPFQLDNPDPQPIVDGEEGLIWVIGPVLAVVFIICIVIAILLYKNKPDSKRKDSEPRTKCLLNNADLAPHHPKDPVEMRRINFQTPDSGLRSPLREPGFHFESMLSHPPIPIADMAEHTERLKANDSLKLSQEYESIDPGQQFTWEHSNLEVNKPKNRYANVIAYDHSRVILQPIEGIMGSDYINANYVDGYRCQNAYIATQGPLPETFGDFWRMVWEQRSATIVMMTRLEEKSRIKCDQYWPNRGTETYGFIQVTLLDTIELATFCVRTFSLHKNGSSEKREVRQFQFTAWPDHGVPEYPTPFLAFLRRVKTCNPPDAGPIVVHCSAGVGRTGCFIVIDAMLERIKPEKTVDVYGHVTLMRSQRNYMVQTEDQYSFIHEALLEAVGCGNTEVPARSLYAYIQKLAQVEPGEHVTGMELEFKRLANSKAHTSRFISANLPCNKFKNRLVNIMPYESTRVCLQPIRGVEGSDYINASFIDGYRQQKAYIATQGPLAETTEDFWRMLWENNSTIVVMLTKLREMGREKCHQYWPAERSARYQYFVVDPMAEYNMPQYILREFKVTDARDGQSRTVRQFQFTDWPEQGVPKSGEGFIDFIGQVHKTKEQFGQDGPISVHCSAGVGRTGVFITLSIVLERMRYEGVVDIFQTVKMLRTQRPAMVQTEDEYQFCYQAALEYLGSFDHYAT
- ASSAY_REMARKS: PTP inhibition assay (pNPP)
- Type: biochemical
- CONDITION_DETAILS: read-out: IC50 PTPσ
ENDPOINT: IC50

Hello, I am looking for reported IC50 with PTPσ (Homo sapiens) for O=C(Nc1cccc(OCc2ccccc2)c1)C(c1ccccc1)S(=O)(=O)O (centres unmarked) . Could you help?
> 200 µM

Request: IC50, test system PTPσ (Homo sapiens), entry "O=C(CS(=O)(=O)O)Nc1cnc2ccccc2c1"
> 100 µM

// lookup IC50 | system=PTPσ (Homo sapiens) | key= O=C(C(c1ccccc1)S(=O)(=O)O)N1CCCC2CCCCC21 (centres unmarked)
> 200 µM

Report IC50 for O=C(C(c1ccccc1)S(=O)(=O)O)N1CCC(c2ccc(Cl)c(Cl)c2)CC1 (centres unmarked) tested on PTPσ (Homo sapiens).
> 200 µM

Hello, I am looking for reported IC50 with PTPσ (Homo sapiens) for "O=C(CS(=O)(=O)O)Nc1nc2ccccc2s1" . Could you help?
> 100 µM

Please tell me: IC50 of "O=C(CS(=O)(=O)O)Nc1ccc2nc(C(F)(F)F)[nH]c2c1" , system PTPσ (Homo sapiens)?
> 100 µM

Item: O=C(C(c1ccccc1)S(=O)(=O)O)N1CCC(Cc2ccccc2)CC1 (centres unmarked) Test system: PTPσ (Homo sapiens) Read-out: IC50 Value: ?
> 200 µM

Find IC50 (PTPσ (Homo sapiens)) for the entry "O=C(CS(=O)(=O)O)Nc1nc2ccc([N+](=O)[O-])cc2s1"
> 100 µM

###

pIC50: −log10 of the molar value.
Quick record: pIC50, Meg2 (Homo sapiens, UniProt P43378).

| COMPOUND | TARGET_OF_ASSAY | ENDPOINT | REPORTED_MEASUREMENT |
| --- | --- | --- | --- |
| O=C(C(c1ccccc1)S(=O)(=O)O)N1CCC(c2ccc(Cl)c(Cl)c2)CC1 (stereo not shown) [Compound L319N47] | Meg2 (Homo sapiens, UniProt P43378) | pIC50 | 3.83 |
| O=C(C(c1ccccc1)S(=O)(=O)O)N1CCC(Cc2ccccc2)CC1 (stereo not shown) [Compound L319N46] | Meg2 (Homo sapiens, UniProt P43378) | pIC50 | < 3.70 |

Recorded pIC50 of O=C(CS(=O)(=O)O)Nc1nc2ccc([N+](=O)[O-])cc2s1 [Compound L335N15-07] , please.
< 4.00

Would you kindly share the measured pIC50 for O=C(Nc1nc2ccccc2s1)C(c1ccccc1)S(=O)(=O)O (stereo not shown) [Compound L319N15] ?
< 3.70
